- System: MCF7 breast
- Test details: NCI tumour cell line growth inhibition, 48 h
Reported TGI values are given for each entry in this list.
Reported property: TGI

| Compound | Val |
| --- | --- |
| COc1cc(/C=C/C(=O)NC[C@]2(O)CCC3C4CCc5cc(O)ccc5C4CCC32C)ccc1O (stereo partly drawn) | > 100 µM |
| CN(C)CCN1C(=O)c2cccc3c(N)ccc(c23)C1=O | > 25 µM |
| CCc1nc(-n2c(CC)nc3ccccc3c2=O)nc(N)c1-c1ccc(Cl)cc1 | > 100 µM |

###

- Test system: U251 CNS
- Test details: NCI tumour cell line growth inhibition, 48 h

| Molecule | TGI |
| --- | --- |
| Fc1ccc2c(c1)SC1Oc3ccccc3-c3c1c-2nn3-c1ccccc1 (configuration not stated) | > 100 µM |
| O=C(Nc1ccc(Cl)cc1F)c1cc(F)ccc1O | > 38.8 µM |
| COc1cc([N+](=O)[O-])c(S(=O)(=O)O)cc1N | > 100 µM |
| CC(=O)/C=C(/C=N/O)c1ccccc1 | > 100 µM |
| CN(C)CCN1C(=O)c2cccc3c(N)ccc(c23)C1=O | > 25 µM |
| O=C(c1ccccn1)c1nc(-c2ccc(Cl)c(Cl)c2)nc2ccc(Cl)cc12 | > 100 µM |
| CCOC(=O)C1(Br)C(c2ccccc2)NC(=O)N(C2OC(COC(=O)c3ccccc3)C(OC(=O)c3ccccc3)C2OC(=O)c2ccccc2)C1(C)Br (configuration not stated) | > 100 µM |
| CC1(C(=O)NCCN(CCNC(=O)C2(C)CC3(C)CC(C)(C2)C(=O)NC3=O)CCNC(=O)C2(C)CC3(C)CC(C)(C2)C(=O)NC3=O)CC2(C)CC(C)(C1)C(=O)NC2=O (configuration not stated) | > 100 µM |
| O=C1OCC2=C1C(c1cccc(C(F)(F)F)c1)c1cc3c(cc1N2CCO)OCO3 (configuration not stated) | > 50 µM |
| Cc1ccc(-c2cn3c(nc4ccccc43)c(-c3ccccc3)n2)cc1 | > 66.6 µM |
| C=CCC(N[C@@H](CO)c1ccccc1)c1ccccn1 (some centres not stated) | > 100 µM |
| c1ccc(CN2CCCN3CCN(CCCN(Cc4ccccc4)CC3)CC2)cc1 | > 100 µM |

Data origin, for the record: PubChem BioAssay (NCI)
